IC50 for assorted binders
MEASURED_ON: mAb R24 (anti-GD3 monoclonal antibody, IgG3)
ASSAY_TEXT: competitive ELISA: peptide pre-incubated with mAb R24 (30 min), remaining R24 binding to plate coated with 0.1 µg GD3 ganglioside

BINDER	IC50, µM
SVAVPPPADDPSWRY [GD3-like peptide PGD3-6]	0.25
RHAYRSMAEWGFLYS [GD3-like peptide PGD3-4]	0.15
GLAPPDYAERFFLIS [GD3-like peptide PGD3-3]	0.3
ACTPYAMLPGCK [GD3-like peptide PGD3-5]	0.1
